Recorded values, source patent EP2815749A1.

TEST_SUMMARY: Approximate solubility of pomalidomide at 50°C in 96 solvent compositions (LC)
Assay type: physicochemical
STUDY_CONDITIONS: binary solvent mixture (main solvent and co-solvent), 50 °C, organic solvent or mixture, thermodynamic from solid, solvent system E5 of Table 7, read-out: Approximate Measured Solubility
READOUT: solubility at 2 h (µg/mL)
Write the value in µg/mL as a bare number.

# get_value(readout='solubility at 2 h', item= Nc1cccc2c1C(=O)N(C1CCC(=O)NC1=O)C2=O (stereo not shown) [Pomalidomide] )
20

---

TEST_SUMMARY: Approximate solubility of pomalidomide at 50°C in 96 solvent compositions (LC)
Assay type: physicochemical
STUDY_CONDITIONS: binary solvent composition (main solvent and co-solvent), 50 °C, organic solvent or mixture, thermodynamic from solid, solvent system C4 of Table 7, read-out: Approximate Measured Solubility
READOUT: solubility at 2 h (µg/mL)
Write the value in µg/mL as a bare number.

# get_value(readout='solubility at 2 h', item= Nc1cccc2c1C(=O)N(C1CCC(=O)NC1=O)C2=O (stereo not shown) [Pomalidomide] )
480

---

TEST_SUMMARY: Approximate solubility of pomalidomide at 50°C in 96 solvent compositions (LC)
Format: physicochemical
STUDY_CONDITIONS: binary solvent composition (main solvent and co-solvent), 50 °C, organic solvent or mixture, thermodynamic from solid, solvent system B6 of Table 7, read-out: Approximate Measured Solubility
READOUT: solubility at 2 h (µg/mL)
Write the value in µg/mL as a bare number.

# get_value(readout='solubility at 2 h', item= Nc1cccc2c1C(=O)N(C1CCC(=O)NC1=O)C2=O (stereo not shown) [Pomalidomide] )
150

---

TEST_SUMMARY: Approximate solubility of pomalidomide at 50°C in 96 solvent compositions (LC)
Type: physicochemical
STUDY_CONDITIONS: binary solvent composition (main solvent and co-solvent), 50 °C, organic solvent or mixture, thermodynamic from solid, solvent system C9 of Table 7, read-out: Approximate Measured Solubility
READOUT: solubility at 2 h (µg/mL)
Write the value in µg/mL as a bare number.

# get_value(readout='solubility at 2 h', item= Nc1cccc2c1C(=O)N(C1CCC(=O)NC1=O)C2=O (stereo not shown) [Pomalidomide] )
1840

---

TEST_SUMMARY: Approximate solubility of pomalidomide at 50°C in 96 solvent compositions (LC)
Type: physicochemical
STUDY_CONDITIONS: binary solvent composition (main solvent and co-solvent), 50 °C, organic solvent or mixture, thermodynamic from solid, solvent system C1 of Table 7, read-out: Approximate Measured Solubility
READOUT: solubility at 2 h (µg/mL)
Write the value in µg/mL as a bare number.

# get_value(readout='solubility at 2 h', item= Nc1cccc2c1C(=O)N(C1CCC(=O)NC1=O)C2=O (stereo not shown) [Pomalidomide] )
620

---

TEST_SUMMARY: Approximate solubility of pomalidomide at 50°C in 96 solvent compositions (LC)
Assay type: physicochemical
STUDY_CONDITIONS: binary solvent composition (main solvent and co-solvent), 50 °C, organic solvent or mixture, thermodynamic from solid, solvent system D3 of Table 7, read-out: Approximate Measured Solubility
READOUT: solubility at 2 h (µg/mL)
Write the value in µg/mL as a bare number.

# get_value(readout='solubility at 2 h', item= Nc1cccc2c1C(=O)N(C1CCC(=O)NC1=O)C2=O (stereo not shown) [Pomalidomide] )
3460
